Target: hCE2 (Homo sapiens)
Construct: tissue Bioreclamation IVT lot no; X008067; host or cells: pooled human liver microsomes, 50 donors
Assay: hCE2 inhibition assay (FD hydrolysis in human liver microsomes)
Type: biochemical
Conditions: ratio of IC50 values, hCE2 over hCE1 selectivity (fold)
Catalogue of Selectivity IC50(hCE1)/IC50(hCE2) values
property: Selectivity IC50(hCE1)/IC50(hCE2)

- compound: "COc1ccc(-c2cc3ccc(OC)c(OC)c3c3[n+]2C(OC)CO3)cc1OCc1ccc(C(C)(C)C)cc1 (stereo not drawn) [Compound 23m]"
  experimentalSystem: "hCE2 (Homo sapiens)"
  property: "Selectivity IC50(hCE1)/IC50(hCE2)"
  readoutValue: ">42.81"
- compound: "COc1ccc(-c2cc3ccc(OC)c(OC)c3c3[n+]2C(OC)CO3)cc1OCc1ccc(S(C)(=O)=O)cc1 (stereo not drawn) [Compound 23e]"
  experimentalSystem: "hCE2 (Homo sapiens)"
  property: "Selectivity IC50(hCE1)/IC50(hCE2)"
  readoutValue: ">8.72"
- compound: "COc1ccc(-c2cc3ccc(OC)c(OC)c3c3[n+]2C(OC)CO3)cc1OCc1ccc(C(F)(F)F)cc1 (stereo not drawn) [Compound 23i]"
  experimentalSystem: "hCE2 (Homo sapiens)"
  property: "Selectivity IC50(hCE1)/IC50(hCE2)"
  readoutValue: ">41.22"
- compound: "COc1ccc2cc(-c3ccc4c(c3)OCO4)n(C(CO)OC)c(=O)c2c1OC (stereo not drawn) [Compound 23b]"
  experimentalSystem: "hCE2 (Homo sapiens)"
  property: "Selectivity IC50(hCE1)/IC50(hCE2)"
  readoutValue: ">0.88"
- compound: "COc1ccc(-c2cc3ccc(OC)c(OC)c3c3[n+]2C(OC)CO3)cc1OCc1ccc(-c2ccccc2)cc1 (stereo not drawn) [Compound 23l]"
  experimentalSystem: "hCE2 (Homo sapiens)"
  property: "Selectivity IC50(hCE1)/IC50(hCE2)"
  readoutValue: ">37.89"
- compound: "COc1ccc(-c2cc3ccc(OC)c(OC)c3c3[n+]2C(OC)CO3)cc1OCc1ccc(C)cc1 (stereo not drawn) [Compound 23k]"
  experimentalSystem: "hCE2 (Homo sapiens)"
  property: "Selectivity IC50(hCE1)/IC50(hCE2)"
  readoutValue: ">17.94"

###

Target: hCE2 (Homo sapiens, UniProt O00748)
Construct: tissue Bioreclamation IVT lot no; X008067; host or cells: pooled human liver microsomes, 50 donors
Sequence (O00748 27-559): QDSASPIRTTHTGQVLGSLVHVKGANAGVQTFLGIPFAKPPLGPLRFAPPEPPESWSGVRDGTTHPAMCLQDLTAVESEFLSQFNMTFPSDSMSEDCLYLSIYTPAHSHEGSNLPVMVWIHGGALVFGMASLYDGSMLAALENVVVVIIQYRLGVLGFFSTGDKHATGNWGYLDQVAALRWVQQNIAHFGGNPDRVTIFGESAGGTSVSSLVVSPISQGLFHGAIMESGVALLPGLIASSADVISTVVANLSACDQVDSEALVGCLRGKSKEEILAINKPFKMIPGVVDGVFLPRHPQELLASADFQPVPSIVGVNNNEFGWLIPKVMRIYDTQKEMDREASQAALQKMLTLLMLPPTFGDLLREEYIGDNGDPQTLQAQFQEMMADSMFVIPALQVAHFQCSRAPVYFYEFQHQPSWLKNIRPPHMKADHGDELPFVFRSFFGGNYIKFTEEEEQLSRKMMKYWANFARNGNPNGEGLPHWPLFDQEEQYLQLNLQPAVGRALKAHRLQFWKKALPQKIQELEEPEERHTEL
Experiment: hCE2 inhibition assay (FD hydrolysis in human liver microsomes)
Format: biochemical
Details: ratio of IC50 values, hCE2 over hCE1 selectivity (fold)
Known Selectivity IC50(hCE1)/IC50(hCE2) of a selection of compounds

- compound: "COc1ccc(-c2cc3ccc(OC)c(OC)c3c3[n+]2C(OC)CO3)cc1OCc1ccc([N+](=O)[O-])cc1 (stereo not shown) [Compound 23h]"
  Selectivity IC50(hCE1)/IC50(hCE2): ">30.14"
- compound: "COC(=O)c1ccc(COc2cc(-c3cc4ccc(OC)c(OC)c4c4[n+]3C(OC)CO4)ccc2OC)cc1 (stereo not shown) [Compound 23f]"
  Selectivity IC50(hCE1)/IC50(hCE2): ">17.46"
- compound: "COc1ccc2cc(-c3ccc4c(c3)OCO4)[n+]3c(c2c1OC)OCC3OC (stereo not shown) [Compound 23a]"
  Selectivity IC50(hCE1)/IC50(hCE2): ">0.25"
- compound: "COc1ccc(-c2cc3ccc(OC)c(OC)c3c3[n+]2C(OC)CO3)cc1OCc1ccc2cccnc2c1 (stereo not shown) [Compound 23j]"
  Selectivity IC50(hCE1)/IC50(hCE2): ">26.51"
